Measured pEC50, listed per entry for reference.
target: T1, human CD3 (human, UniProt P07766 23-207; P04234 22-171; P09693 23-182); assay: FACS on Jurkat cells
T1 construct: whole, on cells; also called hCD3; CD3 on Jurkat cells
T1 sequence (P07766 23-207, chain 1 of 3): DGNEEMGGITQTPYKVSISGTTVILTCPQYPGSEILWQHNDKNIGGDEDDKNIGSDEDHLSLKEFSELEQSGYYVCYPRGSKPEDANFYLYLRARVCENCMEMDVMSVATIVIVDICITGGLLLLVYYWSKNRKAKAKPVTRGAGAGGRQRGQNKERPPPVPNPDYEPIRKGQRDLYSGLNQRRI
T1 sequence (P04234 22-171, chain 2 of 3): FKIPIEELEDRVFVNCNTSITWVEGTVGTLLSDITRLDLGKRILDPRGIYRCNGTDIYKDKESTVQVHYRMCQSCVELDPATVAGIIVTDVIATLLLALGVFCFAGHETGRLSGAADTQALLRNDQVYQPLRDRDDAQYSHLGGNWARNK
T1 sequence (P09693 23-182, chain 3 of 3): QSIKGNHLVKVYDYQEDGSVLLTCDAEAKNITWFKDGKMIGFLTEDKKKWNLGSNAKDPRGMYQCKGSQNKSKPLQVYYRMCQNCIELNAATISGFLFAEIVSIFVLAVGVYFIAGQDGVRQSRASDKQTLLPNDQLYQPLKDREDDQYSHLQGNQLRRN
The read-out pEC50 is expressed as -log10 of concentration in moles per litre.

Some binders with recorded pEC50:
[[record]]
binder = "hu40E9-L2H8 (antibody, V domains shown) VH: EVQLVQSGAEVKKPGSSVKVSCKASGYTFSSYVIHWVRQAPGQGLEWMGYINPGNDVIKYNEKFKGRVTLTSDKSTSTAYMELSSLRSEDTAVYYCARESYSSYDGFAYWGQGTLVTVSS VL: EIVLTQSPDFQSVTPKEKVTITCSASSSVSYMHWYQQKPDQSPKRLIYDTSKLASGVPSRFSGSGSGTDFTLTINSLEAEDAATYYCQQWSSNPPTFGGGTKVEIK"
measurement_type = "pEC50"
value_observed = 7.55

[[record]]
binder = "hu40E9-L2H12 (antibody, V domains shown) VH: EVQLVQSGAEVKKPGSSVKVSCKASGYTFSSYVIHWVRQAPGQGLEWMGYINPYNDVIKYNEKFKGRVTLTSDKSTSTAYMELSSLRSEDTAVYYCARDDYYSYDGFAYWGQGTLVTVSS VL: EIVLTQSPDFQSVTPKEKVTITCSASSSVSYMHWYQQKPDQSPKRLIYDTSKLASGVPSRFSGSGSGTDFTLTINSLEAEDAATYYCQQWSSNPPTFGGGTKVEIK"
measurement_type = "pEC50"
value_observed = 7.14

[[record]]
binder = "ch40-C12-C10-E9 (antibody, V domains shown) VH: EVQLQLSGPELVKPGASVKMSCKASGYTFSSYVIHWVKQKPGQGLEWIGYINPYNDVIKYNEKFKGKATLTSDKSSSTAYMELSSLTSEDSAVYYCARDSYYSYDGFAYWGQGTLVTVSA VL: QIVLTQSPAIMSASPGEKVTMTCSASSSVSYMHWYQQKSGTSPKRWIYDTSKLASGVPARFSGSGSGTSYSLTISSMEAEDAATYYCQQWSSNPPTFGGGTKVEIK"
measurement_type = "pEC50"
value_observed = 9.39

[[record]]
binder = "hu40E9-L2H7 (antibody, V domains shown) VH: EVQLVQSGAEVKKPGSSVKVSCKASGYTFSSYVIHWVRQAPGQGLEWMGYINPGNGVIKYNEKFKGRVTLTSDKSTSTAYMELSSLRSEDTAVYYCARDSYSSYDGFAYWGQGTLVTVSS VL: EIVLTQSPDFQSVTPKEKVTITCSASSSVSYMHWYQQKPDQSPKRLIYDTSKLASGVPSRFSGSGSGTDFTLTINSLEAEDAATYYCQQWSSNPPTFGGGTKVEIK"
measurement_type = "pEC50"
value_observed = 9.18


// pEC50 value for hu40E9-L5H8 (antibody, V domains shown) VH: EVQLVQSGAEVKKPGSSVKVSCKASGYTFSSYVIHWVRQAPGQGLEWMGYINPGNDVIKYNEKFKGRVTLTSDKSTSTAYMELSSLRSEDTAVYYCARESYSSYDGFAYWGQGTLVTVSS VL: EIVLTQSPDFQSVTPKEKVTITCSASSSVSYMHWYQQKPDQSPKRLIYDTSKLASGVPSRFSGSGSGTDFTLTINSLEAEDAATYYCQQWRSSPPTFGGGTKVEIK : 7.59
